# target_system: Human Recombinant Matriptase 2 (Homo sapiens)
# Construct: purchased Enzo Life Sciences (an in-house preparation was also used) ALX-201-752-1
# Sequence (Q8IU80 whole entry): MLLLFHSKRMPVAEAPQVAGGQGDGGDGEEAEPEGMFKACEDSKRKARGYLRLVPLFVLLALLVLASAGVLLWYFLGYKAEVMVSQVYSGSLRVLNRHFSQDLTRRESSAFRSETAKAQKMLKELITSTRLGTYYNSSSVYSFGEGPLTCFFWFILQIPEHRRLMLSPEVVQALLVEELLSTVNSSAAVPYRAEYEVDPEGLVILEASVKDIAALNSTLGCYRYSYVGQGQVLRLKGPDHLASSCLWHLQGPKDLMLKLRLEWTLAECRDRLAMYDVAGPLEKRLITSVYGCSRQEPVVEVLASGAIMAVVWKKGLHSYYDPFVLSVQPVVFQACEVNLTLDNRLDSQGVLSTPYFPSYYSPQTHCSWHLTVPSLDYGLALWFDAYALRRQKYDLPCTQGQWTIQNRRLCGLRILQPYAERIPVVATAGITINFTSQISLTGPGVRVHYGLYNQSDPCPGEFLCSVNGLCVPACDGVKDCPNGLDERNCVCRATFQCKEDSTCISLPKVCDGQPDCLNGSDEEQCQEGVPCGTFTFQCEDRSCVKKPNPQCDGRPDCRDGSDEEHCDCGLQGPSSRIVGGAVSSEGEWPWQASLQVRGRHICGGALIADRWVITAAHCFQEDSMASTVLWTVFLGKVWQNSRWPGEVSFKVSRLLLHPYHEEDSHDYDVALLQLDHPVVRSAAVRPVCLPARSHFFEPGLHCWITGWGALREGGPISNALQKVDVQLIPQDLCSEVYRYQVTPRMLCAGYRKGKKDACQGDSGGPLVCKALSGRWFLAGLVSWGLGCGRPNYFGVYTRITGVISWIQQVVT
# test_details: Matriptase 2 fluorescence based inhibition assay, Method B (50 mM TRIS pH 7.5, 150 mM NaCl, 0.01% gelatin)
# Assay type: biochemical
# experimental_parameters: 1 uM compound; Assay Used = B; read-out: Mar-2 % inhibition at 1 uM

{"molecule": "N=C(N)c1ccc2cc(C(=O)N3CCC(CO)CC3)n(Cc3cccc4ccccc34)c2c1", "target_system": "Human Recombinant Matriptase 2 (Homo sapiens)", "inhibition at 1 µM": "25 to 50%"}
{"molecule": "N=C(N)c1ccc2cc(C(=O)O)n(Cc3cc(Oc4ncc(F)cn4)cc4ccccc34)c2c1", "target_system": "Human Recombinant Matriptase 2 (Homo sapiens)", "inhibition at 1 µM": "50 to 75%"}
{"molecule": "N=C(N)c1ccc2cc(-c3nc4c(s3)CCC(N)C4)n(Cc3cccc4ccccc34)c2c1 (stereo not shown)", "target_system": "Human Recombinant Matriptase 2 (Homo sapiens)", "inhibition at 1 µM": "25 to 50%"}
{"molecule": "NC(=O)c1ccc2cc(C(=O)NC3CCNCC3)n(Cc3cccc4ccccc34)c2c1", "target_system": "Human Recombinant Matriptase 2 (Homo sapiens)", "inhibition at 1 µM": "0 to 25%"}
{"molecule": "CCOC(=O)NC(=N)c1ccc2cc(C(=O)NC3CCN(C)CC3)n(Cc3cc(Oc4ncccn4)cc4ccccc34)c2c1", "target_system": "Human Recombinant Matriptase 2 (Homo sapiens)", "inhibition at 1 µM": "25 to 50%"}
{"molecule": "COC(=O)NCCOC(=O)c1cc2ccc(C(=N)N)cc2n1Cc1cc(S(=O)(=O)c2ccccc2)cc2ccccc12", "target_system": "Human Recombinant Matriptase 2 (Homo sapiens)", "inhibition at 1 µM": "25 to 50%"}
{"molecule": "N=C(N)c1ccc2cc(C(=O)O)n(Cc3cc(Oc4nccs4)cc4ccccc34)c2c1", "target_system": "Human Recombinant Matriptase 2 (Homo sapiens)", "inhibition at 1 µM": "75 to 100%"}

* * *

# target_system: Human Recombinant Matriptase 2 (Homo sapiens)
# Construct: purchased Enzo Life Sciences (an in-house preparation was also used) ALX-201-752-1
# test_details: Matriptase 2 fluorescence based inhibition assay, Method B (50 mM TRIS pH 7.5, 150 mM NaCl, 0.01% gelatin)
# Assay type: biochemical
# experimental_parameters: 1 uM compound; Assay Used = B (Method B); read-out: Mar-2 % inhibition at 1 uM
# Procedure: Test compounds were evaluated for their potential to inhibit Human Recombinant Matriptase 2 (in-house and commercial protein from Enzo Life Sciences—cat log -ALX-201-752-1) using fluorescence based assay. […] The enzyme and compound preincubated for 30 mins, plate was read 60 mins after substrate addition at wavelength Ex: 360/Em:480 nm. […]

{"compound": "CO/N=C(/N)c1ccc2cc(C(=O)O)n(Cc3cccc4ccccc34)c2c1 [Compound I-699]", "inhibition at 1 µM": "0 to 25%"}
{"compound": "NCc1ccc2cc(C(=O)N[C@H]3CC[C@H](N)CC3)n(Cc3cc(Oc4ccccc4)cc4ccccc34)c2c1 [Compound I-635]", "inhibition at 1 µM": "50 to 75%"}
{"compound": "N=C(N)c1ccc2cc(C(=O)O)n(Cc3cccc4c(COCc5ccccc5)cccc34)c2c1 [Compound I-672]", "inhibition at 1 µM": "75 to 100%"}
{"compound": "N=C(N)c1ccc2cc(C(=O)O)n(Cc3cc(Oc4ccccc4Cl)cc4ccccc34)c2c1 [Compound I-661]", "inhibition at 1 µM": "25 to 50%"}
{"compound": "N=C(N)c1ccc2cc(C(=O)OCCO)n(Cc3cccc4ccccc34)c2c1 [Compound I-611]", "inhibition at 1 µM": "50 to 75%"}
{"compound": "N=C(N)c1ccc2cc(C(=O)NCc3ccncc3)n(Cc3cccc4ccccc34)c2c1 [Compound I-758]", "inhibition at 1 µM": "50 to 75%"}
{"compound": "CNC(=N)c1ccc2[nH]c(C(=O)N[C@H]3CC[C@H](N)CC3)c(Cc3cccc4ccccc34)c2c1 [Compound I-747]", "inhibition at 1 µM": "0 to 25%"}
{"compound": "CC(C)Oc1ccc2c(Cn3c(C(=O)O)cc4ccc(C(=N)N)cc43)cccc2c1 [Compound I-793]", "inhibition at 1 µM": "50 to 75%"}
